test: solvent given as SMILES; settings: in C1CCOC1
Please go through the items and note down their emission maximum.
Write the value in nm as a bare number.

Requested field: emission maximum. Item: C=CCOC(=O)C(C#N)=C1C=C(/C=C/c2ccc(N(C)C)cc2)OC(/C=C/c2ccc(N(C)C)cc2)=C1
595

Also, c1ccc(-c2cnc3nn4ccccc4c3n2)cc1 please.
449

And what about the molecule C(=C\c1ccccn1)/c1ccc(N(c2ccc(/C=C/c3ccccn3)cc2)c2ccc(-c3nc4ccccc4nc3-c3ccc(N(c4ccc(/C=C/c5ccccn5)cc4)c4ccc(/C=C/c5ccccn5)cc4)cc3)cc2)cc1 ?
548

Follow-up entry: COc1cc2c3c(c4cc(OC)c(OC)c(OC)c4c2c(OC)c1OC)=[N+]1C(=C(c2c(C)cc(C)cc2C)c2cc4c5cc(OC)c(OC)c(OC)c5c5c(OC)c(OC)c(OC)cc5c4n2[B-]1(F)F)C=3
763

Input CC1=C(Cc2ccccc2)C(C)=[N+]2C1=C(C)c1c(C)c(-c3csc(N4CCOCC4)n3)c(C)n1[B-]2(F)F
620

And what about the molecule CCCCCCCCCc1c2ccccc2cc2c1oc1c3oc4c5oc6cc7ccccc7cc6c5c5ccccc5c4c3c3ccccc3c21 ?
428

// repeat for CCCCC1(c2ccccc2)Nc2c(-c3ccc(N(C)c4ccccc4)cc3)ccc(-c3ccc(N(C)c4ccccc4)cc3)c2N=C1c1ccccc1 (configuration not stated) and report
580

Please do the same for F[Si-](F)(c1ccccc1)(c1ccccc1)c1cccc2ccccc12 as well.
338

What about this molecule? Cc1cc(=O)oc2cc3c4ccccc4c4ccccc4c3cc12
410

Now the molecule CCCCCN(c1ccccc1)c1ccc2c(c1)C(CC)(CC)c1cc(/C=C/c3ccc(/C=C(\C#N)C(=O)O)s3)ccc1-2
597

Again, but for N#Cc1cc(-n2c3ccccc3c3ccccc32)c(-n2c3ccccc3c3ccccc32)cc1C#N
501

Another: F[Si](c1ccccc1)(c1ccccc1)c1cccc2ccccc12
332

# repeat for N#CC1=c2c3cccc4cccc(c43)n2[B-](F)(F)[n+]2ccccc21
530

What about CC1=CC(C)=[N+]2C1=C(c1ccc(N3CCCCC3)cc1)c1c(C)cc(C)n1[B-]2(F)F ?
515

Check CN(C)c1ccc(/C=C/c2nc(/C=C/c3ccc(N(C)C)cc3)c3ccccc3n2)cc1 too.
540

Now give it for N#Cc1ccc(C[C@H](N)C(=O)O)cc1 too.
292.44

Also, COc1ccc2cc([C@H](C)C(=O)O)ccc2c1 please.
351.7
